# Lookup of reported Improvement in pH responsiveness of inhibitory peptide relative to WT keyed by entry
# assayed_system: T1, thermostable variant of Streptomyces mobaraensis transglutaminase (Streptomyces mobaraensis, UniProt P81453 79-407)
# T1 sequence: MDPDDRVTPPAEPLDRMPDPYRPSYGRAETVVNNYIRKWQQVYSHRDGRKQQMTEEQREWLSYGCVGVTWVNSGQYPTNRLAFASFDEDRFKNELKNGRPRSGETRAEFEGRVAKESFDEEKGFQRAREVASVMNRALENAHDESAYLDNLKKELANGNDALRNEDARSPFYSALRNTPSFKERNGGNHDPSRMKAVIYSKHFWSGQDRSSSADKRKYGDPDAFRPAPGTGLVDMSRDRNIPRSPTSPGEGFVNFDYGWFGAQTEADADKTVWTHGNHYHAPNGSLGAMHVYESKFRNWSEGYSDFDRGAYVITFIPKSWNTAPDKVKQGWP
# test_protocol: cell-based or functional assay

Some solved entries appear below for comparison.
> print(dat)
                                     binder  endpoint.result
1  MDNGAGLETKSYAETYRLTADDVANINALNESAPAASSAGPSFRAP [pro-peptide variant E7L]       > 1.2 fold
2  MDNGAGEETKSYAETYRLTADDVANINALNESAPAASSAGPSFRAI [pro-peptide variant P46I]       > 1.2 fold
3  MDNGAGEETKSYAETYRLTASDVANINALNESAPAASSAGPSFRAP [pro-peptide variant D21S]       > 1.2 fold
4  MDNGAGEETKSYAETYRLTADDVANINALNESAPAASSAGPSFRAN [pro-peptide variant P46N]         > 5 fold
5  MDNGAGEETKSYAETYRLTADDVANINALNESAPAASVAGPSFRAP [pro-peptide variant S38V]       > 1.2 fold
6  MDNGAGEETKSYAETYR [pro-peptide truncation variant ΔL18-P46]         > 5 fold
7  MDNGAGEETKSVAETYRLTADDVANINALNESAPAASSAGPSFRAP [pro-peptide variant Y12V]       > 1.2 fold
8  MDNGAGEEQKSYAETYRLTADDVANINALNESAPAASSAGPSFRAP [pro-peptide variant T9Q]       > 1.2 fold

// query Name the recorded Improvement in pH responsiveness of inhibitory peptide relative to WT of the item MDNGAGEETKSYAETYRLTADDVANINALNESAPAASSAGPSFRAA [pro-peptide variant P46A] in your answer.
// result > 1.2 fold

// query Name the recorded Improvement in pH responsiveness of inhibitory peptide relative to WT of the item MDNGAGEETKSYAETYRLTADDVAN [pro-peptide truncation variant ΔI26-P46] in your answer.
// result > 1.2 fold

// query Name the recorded Improvement in pH responsiveness of inhibitory peptide relative to WT of the item MDNGAGEETKSYAETYRLTADDVANINALNESAPAASSAGPSFRAS [pro-peptide variant P46S] in your answer.
// result > 1.2 fold

// query Name the recorded Improvement in pH responsiveness of inhibitory peptide relative to WT of the item MDNGAGEETKSYAGTYRLTADDVANINALNESAPAASSAGPSFRAP [pro-peptide variant E14G] in your answer.
// result > 5 fold
